Tested on: U-251
Assay: Growth inhibition of human U251 cells assessed tumor cell growth at 10^-5 M
Type: functional
Parameters: scale not given: the % may be the effect or the level left
We use 70% as the dividing line for Activity: on or above the line is YES, below is NO.

> print(dat)
                                        smi  group
1  O=C1/C(=C\c2cn(C(=O)c3ccc(Cl)cc3)c3ccccc23)c2ccccc2N1C(=O)c1ccc(Cl)cc1    YES
2  C=CCn1cc(/C=C2\C(=O)N(c3c(Cl)cccc3Cl)c3ccccc32)c2ccccc21     NO
3  CC1=NN(c2cccc(Cl)c2)C(=O)/C1=C\c1cn(Cc2ccccc2)c2ccccc12    YES
4  O=C1/C(=C\c2cn(C(=O)c3ccccc3)c3ccccc23)c2ccccc2N1c1c(Cl)cccc1Cl    YES
5  O=C1Nc2ccccc2/C1=C/c1cn(C(=O)c2c(Cl)cccc2Cl)c2ccccc12     NO
6   CC1=NN(c2cccc(Cl)c2)C(=O)/C1=C\c1ccccn1    YES
7  CC1=NN(c2cccc(Cl)c2)C(=O)/C1=C\C=C\c1ccccc1     NO
8  O=C1/C(=C\c2cn(Cc3ccccc3)c3ccccc23)c2ccccc2N1Cc1ccccc1    YES
9  Cc1ccc(S(=O)(=O)n2cc(/C=C3\C(=O)N(c4c(Cl)cccc4Cl)c4ccccc43)c3ccccc32)cc1    YES

---

Tested on: UACC-257
Experiment: Growth inhibition of human UACC257 cells
Format: functional
// GI50 lookup, one value per entry
quantity kind: GI50 (µM)

> print(dat)
                                        smi  measured.on  quantity.kind  qualifier.symbol  measurement
1  O=C1Nc2ccccc2/C1=C/c1cn(C(=O)c2c(Cl)cccc2Cl)c2ccccc12     UACC-257           GI50                 =            5
2  CC1=NN(c2cccc(Cl)c2)C(=O)/C1=C\C=C\c1ccccc1     UACC-257           GI50                 =          2.1
3  O=C1/C(=C\c2ccccn2)c2ccccc2N1c1c(Cl)cccc1Cl     UACC-257           GI50                 =          1.7
4  O=C1/C(=C\c2coc3ccccc3c2=O)c2ccccc2N1c1c(Cl)cccc1Cl     UACC-257           GI50                 =          4.5
5  CC1=NN(c2cccc(Cl)c2)C(=O)/C1=C\c1c(O)ccc2ccccc12     UACC-257           GI50                 >          100

---

Tested on: EKVX
Experiment: Growth inhibition of human EKVX cells
Assay type: functional
Details: read-out: LC50 (the source's name)
// CC50 lookup, one value per entry
quantity kind: CC50

> print(dat)
                                        smi  measured.on  measurement
1  O=C1Nc2ccccc2/C1=C/c1cn(C(=O)c2c(Cl)cccc2Cl)c2ccccc12         EKVX     > 100 µM
2  O=C1/C(=C\c2ccccn2)c2ccccc2N1c1c(Cl)cccc1Cl         EKVX     > 100 µM
3  O=C1/C(=C\c2coc3ccccc3c2=O)c2ccccc2N1c1c(Cl)cccc1Cl         EKVX     > 100 µM
4  CC1=NN(c2cccc(Cl)c2)C(=O)/C1=C\c1c(O)ccc2ccccc12         EKVX     > 100 µM
5  CC1=NN(c2cccc(Cl)c2)C(=O)/C1=C\C=C\c1ccccc1         EKVX     > 100 µM

---

System: OVCAR-5
Assay: Growth inhibition of human OVCAR5 cells
Format: functional
quantity kind: GI50 (µM)

> print(dat)
                                        smi  measured.on  qualifier.symbol  measurement
1  CC1=NN(c2cccc(Cl)c2)C(=O)/C1=C\C=C\c1ccccc1      OVCAR-5                 =          2.8
2  O=C1Nc2ccccc2/C1=C/c1cn(C(=O)c2c(Cl)cccc2Cl)c2ccccc12      OVCAR-5                 =          8.9
3  O=C1/C(=C\c2coc3ccccc3c2=O)c2ccccc2N1c1c(Cl)cccc1Cl      OVCAR-5                 =         20.8
4  O=C1/C(=C\c2ccccn2)c2ccccc2N1c1c(Cl)cccc1Cl      OVCAR-5                 =          2.4
5  CC1=NN(c2cccc(Cl)c2)C(=O)/C1=C\c1c(O)ccc2ccccc12      OVCAR-5                 >          100

---

Test: Growth inhibition of human RPMI8266 cells
Type: functional
Conditions: read-out: LC50 (the source's name)
quantity kind: CC50

> print(dat)
                                        smi  measurement
1  O=C1/C(=C\c2coc3ccccc3c2=O)c2ccccc2N1c1c(Cl)cccc1Cl      69.1 µM
2  O=C1Nc2ccccc2/C1=C/c1cn(C(=O)c2c(Cl)cccc2Cl)c2ccccc12     > 100 µM
3  CC1=NN(c2cccc(Cl)c2)C(=O)/C1=C\C=C\c1ccccc1     > 100 µM
4  CC1=NN(c2cccc(Cl)c2)C(=O)/C1=C\c1c(O)ccc2ccccc12     > 100 µM
5  O=C1/C(=C\c2ccccn2)c2ccccc2N1c1c(Cl)cccc1Cl     > 100 µM

---

Assay: Growth inhibition of human RPMI8266 cells
Assay type: functional
quantity kind: GI50 (nM)

> print(dat)
                                        smi  quantity.kind  qualifier.symbol  measurement
1  O=C1/C(=C\c2ccccn2)c2ccccc2N1c1c(Cl)cccc1Cl           GI50                 =         2200
2  O=C1Nc2ccccc2/C1=C/c1cn(C(=O)c2c(Cl)cccc2Cl)c2ccccc12           GI50                 =         3400
3  CC1=NN(c2cccc(Cl)c2)C(=O)/C1=C\c1c(O)ccc2ccccc12           GI50                 >       100000
4  CC1=NN(c2cccc(Cl)c2)C(=O)/C1=C\C=C\c1ccccc1           GI50                 =         2800
5  O=C1/C(=C\c2coc3ccccc3c2=O)c2ccccc2N1c1c(Cl)cccc1Cl           GI50                 =         1200

---

Tested on: UACC-62
Assay: Growth inhibition of human UACC62 cells
Assay type: functional
Conditions: read-out: LC50 (the source's name)
// CC50 lookup, one value per entry
quantity kind: CC50

> print(dat)
                                        smi  measured.on  measurement
1  CC1=NN(c2cccc(Cl)c2)C(=O)/C1=C\C=C\c1ccccc1      UACC-62       8.5 µM
2  O=C1Nc2ccccc2/C1=C/c1cn(C(=O)c2c(Cl)cccc2Cl)c2ccccc12      UACC-62      61.6 µM
3  O=C1/C(=C\c2coc3ccccc3c2=O)c2ccccc2N1c1c(Cl)cccc1Cl      UACC-62     > 100 µM
4  CC1=NN(c2cccc(Cl)c2)C(=O)/C1=C\c1c(O)ccc2ccccc12      UACC-62     > 100 µM
5  O=C1/C(=C\c2ccccn2)c2ccccc2N1c1c(Cl)cccc1Cl      UACC-62       6.9 µM

---

Tested on: ACHN
Assay: Growth inhibition of human ACHN cells
Assay type: functional
Settings: read-out: LC50 (the source's name)
// CC50 lookup, one value per entry
quantity kind: CC50 (µM)

> print(dat)
                                        smi  qualifier.symbol  measurement
1  O=C1/C(=C\c2coc3ccccc3c2=O)c2ccccc2N1c1c(Cl)cccc1Cl                 >          100
2  O=C1/C(=C\c2ccccn2)c2ccccc2N1c1c(Cl)cccc1Cl                 =          7.2
3  CC1=NN(c2cccc(Cl)c2)C(=O)/C1=C\c1c(O)ccc2ccccc12                 >          100
4  CC1=NN(c2cccc(Cl)c2)C(=O)/C1=C\C=C\c1ccccc1                 =          6.1
5  O=C1Nc2ccccc2/C1=C/c1cn(C(=O)c2c(Cl)cccc2Cl)c2ccccc12                 >          100
